# System: 5-hydroxytryptamine receptor 4 (Cavia porcellus)
# Measurement protocol: Relative efficacy compared to serotonin(1) in 5-hydroxytryptamine 4 assay
# Assay type: functional
Value type: Relative efficacy

Smiles record | Observed
CCCCC/N=C(/N)N/N=C/c1c[nH]c2ccc(OCOC)cc12 | 0.7
Oc1ccc2[nH]cc(/C=N/Nc3ncc[nH]3)c2c1 | 1
CN1CCN=C1N/N=C/c1c[nH]c2ccc(O)cc12 | 0
COc1cccc(CCNC(=N)N/N=C/c2c[nH]c3ccc(O)cc23)c1 | 0.5
CCCCC/N=C(/N)N/N=C/c1c[nH]c2ccc(OC(=O)N(C)C)cc12 | 0.7
CCCCC/N=C(/N)N/N=C/c1c[nH]c2ccc(OCCN(C)C)cc12 | 0.3

---

# System: 5-hydroxytryptamine receptor 4 (Cavia porcellus) (UniProt O70528)
# Sequence (O70528 whole entry): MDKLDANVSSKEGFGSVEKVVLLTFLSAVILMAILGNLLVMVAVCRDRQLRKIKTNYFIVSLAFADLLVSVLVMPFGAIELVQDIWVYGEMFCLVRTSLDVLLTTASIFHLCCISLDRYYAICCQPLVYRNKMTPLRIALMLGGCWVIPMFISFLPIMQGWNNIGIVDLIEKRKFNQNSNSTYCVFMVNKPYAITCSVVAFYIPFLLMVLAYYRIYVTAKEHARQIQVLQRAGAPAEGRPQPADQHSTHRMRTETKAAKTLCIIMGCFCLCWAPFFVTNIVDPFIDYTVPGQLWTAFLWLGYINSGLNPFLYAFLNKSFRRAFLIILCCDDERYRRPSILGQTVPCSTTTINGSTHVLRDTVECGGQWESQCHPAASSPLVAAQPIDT
# Measurement protocol: Relative efficacy compared to serotonin(1) in 5-hydroxytryptamine 4 assay
# Type: functional
Value type: Relative efficacy

Smiles record | Observed
CCCCC/N=C(/N)N/N=C/c1c[nH]c2ccc(O)nc12 | 0.9
N/C(=N/N=C/c1c[nH]c2ccc(O)cc12)NCCc1ccc(Cl)cc1 | 0.2
CCCCC/N=C(/N)N/N=C/c1c[nH]c2ccc(OC(C)C)cc12 | 0.5
CCCCC/N=C(/N)N/N=C/c1c[nH]c2ccc(OCC)cc12 | 0.1
Oc1ccc2[nH]cc(/C=N/NC3=NCCS3)c2c1 | 0.5
CCCCC/N=C(/N)N/N=C/c1c[nH]c2ccc(OC)nc12 | 1
N/C(=N/N=C/c1c[nH]c2ccc(O)cc12)NCCc1ccccc1Cl | 0.5
N/C(=N/N=C/c1c[nH]c2ccc(O)cc12)NCCc1ccccc1 | 1
CCCCCNC(=N)N/N=C/c1c[nH]c2ccc(O)cc12 | 0.9
N/C(=N/N=C/c1c[nH]c2ccc(O)cc12)NCCCO | 0.7
N/C(=N/N=C/c1c[nH]c2ccc(O)cc12)NCCNC(=O)c1ccccc1 | 0.5

---

# System: 5-hydroxytryptamine receptor 4 (Cavia porcellus)
# Measurement protocol: 5-hydroxytryptamine 4 receptor agonistic activity was measured by twitch response enhancing activity in electrically stimulated guinea pig ileum preparation
# Format: functional, tissue-based

Smiles record | System | Qualifier sign | pD2
CCCCC/N=C(/N)N/N=C/c1csc2ccc(OC)cc12 | 5-hydroxytryptamine receptor 4 (Cavia porcellus) | = | 6.1
CCCCC/N=C(/N)N/N=C/c1[nH]nc2ccc(O)cc12 | 5-hydroxytryptamine receptor 4 (Cavia porcellus) | < | 4
CCCCC/N=C(/N)N/N=C/c1c[nH]c2ccc(OCCO)cc12 | 5-hydroxytryptamine receptor 4 (Cavia porcellus) | = | 7.4
CCCCC/N=C(/N)N/N=C/c1csc2ccc(O)cc12 | 5-hydroxytryptamine receptor 4 (Cavia porcellus) | < | 7
Cl.N/C(=N/N=C/c1c[nH]c2ccc(O)cc12)NCCc1ccc(Cl)c(Cl)c1 | 5-hydroxytryptamine receptor 4 (Cavia porcellus) | > | 10
CCCCCCCCNC(=N)N/N=C/c1c[nH]c2ccc(O)cc12 | 5-hydroxytryptamine receptor 4 (Cavia porcellus) | < | 4
CCCCC/N=C(/N)N/N=C/c1c[nH]c2ccc(OC(C)C)cc12 | 5-hydroxytryptamine receptor 4 (Cavia porcellus) | = | 6.8
CCCCCCCN(C)C(=N)N/N=C/c1c[nH]c2ccc(O)cc12 | 5-hydroxytryptamine receptor 4 (Cavia porcellus) | = | 8
CCCCC/N=C(/N)N/N=C/c1c[nH]c2ccc(NS(C)(=O)=O)cc12 | 5-hydroxytryptamine receptor 4 (Cavia porcellus) | < | 4
Cl.N=C(N)N/N=C/c1c[nH]c2ccc(O)cc12 | 5-hydroxytryptamine receptor 4 (Cavia porcellus) | = | 8.8
CCCCC/N=C(/N)N/N=C/c1c[nH]c2ccc(OCC(=O)N(C)C)cc12 | 5-hydroxytryptamine receptor 4 (Cavia porcellus) | = | 7.3
Oc1ccc2[nH]cc(/C=N/NC3=NCCS3)c2c1 | 5-hydroxytryptamine receptor 4 (Cavia porcellus) | = | 6.5
CCCCC/N=C(/N)N/N=C/c1c[nH]c2ccc(OC(=O)CCCCC)cc12 | 5-hydroxytryptamine receptor 4 (Cavia porcellus) | < | 4
CCCCC/N=C(/N)N/N=C/c1c[nH]c2ccccc12 | 5-hydroxytryptamine receptor 4 (Cavia porcellus) | < | 6
CCCCC/N=C(/N)N/N=C/c1c[nH]c2ccc(N)cc12 | 5-hydroxytryptamine receptor 4 (Cavia porcellus) | = | 7.6
CCCCC/N=C(/N)N/N=C/c1c[nH]c2ccc(OCCOC)cc12 | 5-hydroxytryptamine receptor 4 (Cavia porcellus) | = | 6.6
N/C(=N/N=C/c1c[nH]c2ccc(O)cc12)NCCNC(=O)c1ccccc1 | 5-hydroxytryptamine receptor 4 (Cavia porcellus) | = | 8.5
CCCCC/N=C(/N)N/N=C/c1c[nH]c2ccc(OCOC)cc12 | 5-hydroxytryptamine receptor 4 (Cavia porcellus) | = | 7.5
Oc1ccc2[nH]cc(/C=N/NC3=NCCN3)c2c1 | 5-hydroxytryptamine receptor 4 (Cavia porcellus) | = | 7.3
N/C(=N/N=C/c1c[nH]c2ccc(O)cc12)NCCCc1ccccc1 | 5-hydroxytryptamine receptor 4 (Cavia porcellus) | = | 8.5
CCCCC/N=C(/N)N/N=C/c1c[nH]c2ccc(OC)nc12 | 5-hydroxytryptamine receptor 4 (Cavia porcellus) | = | 7.1
CCCCC/N=C(/N)N/N=C/c1c[nH]c2ccc(OCC)cc12 | 5-hydroxytryptamine receptor 4 (Cavia porcellus) | < | 7
CCCCC/N=C(/N)N/N=C/c1c[nH]c2ccc([Si](C)(C)C)cc12 | 5-hydroxytryptamine receptor 4 (Cavia porcellus) | < | 5.5
